B1: CAMK2B (parent)
chain: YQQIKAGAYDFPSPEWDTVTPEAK

# Variants of: B1
# ASSAY_COMMENT: protein stability index of a GFP-peptide fusion (GPS, HEK-293T) (PSI 1-6); higher = more stable;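 note: lentivirally expressed fusions sorted by FACS into six bins by GFP to DsRed ratio, PSI derived from sequencing read proportions per bin multiplied by bin number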
# EXPERIMENTAL_CONTEXT: c terminus: a fixed tail appended
Give measured protein stability index for each item. Keep answers brief.
Lab note: write the figure by itself, no unit.

Value of protein stability index reported for the variant YQQIKAGAYDFTSPEWDTVTPEAK [P12T] is 3.36

Per the records, this variant ( YQQIKAGAYDFPSPEWDTVGPEAK [T20G] ) has protein stability index equal to 3.7

Data point: YQQIIAGAYDFPSPEWDTVTPEAK [K5I] ; protein stability index = 3.35

The measured values listed here are drawn from the supplement of paper PMC10567573.
